# assayed system: Gag-Pol polyprotein [588-1027]/[588-1147] (Human immunodeficiency virus 1)
# Construct: 588-1027; 588-1147
# test method notes: HIV-1 RT Assay
# test context: pH 7.9
pIC50: −log10 of the molar value.

{"compound": "COC(=O)CCCC=C(c1cc(C(=O)OC)c(OC)c(C(F)(F)F)c1)c1cc(C(=O)OC)c(OC)c(C(F)(F)F)c1 [Alkenyldiarylmethane (ADAM) 18a]", "pIC50": "< 3.70"}
{"compound": "COC(=O)c1cc(C(=CCCCc2ccccc2)c2cc(Cl)c(OC)c(C(=O)OC)c2)cc(Cl)c1OC", "pIC50": "< 4.00"}
{"compound": "COC(=O)c1cc(C(=CCCCc2ccccc2)c2cc(Br)c(OC)c(C(=O)OC)c2)cc(Br)c1OC", "pIC50": "< 4.00"}
{"compound": "COC(=O)c1cc(C(=CCCCC(=O)OC(C)C)c2cc(Cl)c(OC)c(C(=O)OC)c2)cc(Cl)c1OC [Alkenyldiarylmethane (ADAM) 25a]", "pIC50": "< 4.00"}
